All values here come from ChEMBL document CHEMBL4196192.

# Tested on: Plasmodium falciparum
# assay_overview: Growth inhibition of Plasmodium falciparum 3D7 asynchronous cultures by PicoGreen dye based assay
# Assay type: functional, organism-based
Could you please report measured log10 IC50 for the items listed next?
Form field - Quantity: IC50; Unit: µM; Scale: log10

INSERT INTO assay_data (compound, reported_endpoint, experimental_value) VALUES
  ('CC(=O)N(O)C/C=C/P(=O)(O)O', 'log10 IC50', -0.69);

For every item below, please supply its log10 IC50.
1. O=CN(O)C/C=C/P(=O)([O-])O.[Na+]
2. CC(=O)N(O)C/C=C/P(=O)(OCOC(=O)C(C)(C)C)OCOC(=O)C(C)(C)C
3. CC(=O)N(O)CCCP(=O)(O)O

[-1.72, -1.74, -0.29]
